Values of IC50 for UniProtKB O75460, collected from a number of published sources:

COCCNCCNC(=O)c1ccc(-c2ccc3c(C=O)c(O)ccc3c2)cn1	< 100 nM
CNC(=O)C1CCN(c2ccc3ccc(O)c(C=O)c3c2)C1 (centres unmarked)	> 1000 nM
CCc1cc(-c2cc(F)c(NS(=O)(=O)c3ccccc3Cl)nc2OC)cc2cnc(N[C@H]3CC[C@@](C)(N(C)C)CC3)nc12	50 to 100 nM

Give the reported IC50 for Cc1cc(NS(=O)(=O)c2ccccc2Cl)ccc1/C=C/c1cnc(NC2CCC(N(C)C)CC2)nc1 (centres unmarked) (system: UniProtKB O75460).
≤ 1 nM

Give the reported IC50 for COCCOCCc1c(C)c2cc(OC)c(O)c(C=O)c2oc1=O (system: UniProtKB O75460).
< 100 nM

Give the reported IC50 for COCCNC(=O)CCc1c(C)c2cc(OCCOC)c(O)c(C=O)c2oc1=O (system: UniProtKB O75460).
< 100 nM

Give the reported IC50 for O=Cc1c(O)ccc2cc(N3CCC(C(=O)N4CCOCC4)CC3)ccc12 (system: UniProtKB O75460).
< 1000 nM

Give the reported IC50 for CN(C)CCCNC(=O)c1ccc(-c2ccc3c(C=O)c(O)ccc3c2)s1 (system: UniProtKB O75460).
< 1000 nM
